These entries and their values trace back to paper PMC10788528.

target: Sm.TRPMMCLZ (Schistosoma mansoni, UniProt A0A5K4FCC0); assay: Ca2+ reporter assay; format: cell-based; conditions: 10 μM
Sequence (A0A5K4FCC0 1-1380): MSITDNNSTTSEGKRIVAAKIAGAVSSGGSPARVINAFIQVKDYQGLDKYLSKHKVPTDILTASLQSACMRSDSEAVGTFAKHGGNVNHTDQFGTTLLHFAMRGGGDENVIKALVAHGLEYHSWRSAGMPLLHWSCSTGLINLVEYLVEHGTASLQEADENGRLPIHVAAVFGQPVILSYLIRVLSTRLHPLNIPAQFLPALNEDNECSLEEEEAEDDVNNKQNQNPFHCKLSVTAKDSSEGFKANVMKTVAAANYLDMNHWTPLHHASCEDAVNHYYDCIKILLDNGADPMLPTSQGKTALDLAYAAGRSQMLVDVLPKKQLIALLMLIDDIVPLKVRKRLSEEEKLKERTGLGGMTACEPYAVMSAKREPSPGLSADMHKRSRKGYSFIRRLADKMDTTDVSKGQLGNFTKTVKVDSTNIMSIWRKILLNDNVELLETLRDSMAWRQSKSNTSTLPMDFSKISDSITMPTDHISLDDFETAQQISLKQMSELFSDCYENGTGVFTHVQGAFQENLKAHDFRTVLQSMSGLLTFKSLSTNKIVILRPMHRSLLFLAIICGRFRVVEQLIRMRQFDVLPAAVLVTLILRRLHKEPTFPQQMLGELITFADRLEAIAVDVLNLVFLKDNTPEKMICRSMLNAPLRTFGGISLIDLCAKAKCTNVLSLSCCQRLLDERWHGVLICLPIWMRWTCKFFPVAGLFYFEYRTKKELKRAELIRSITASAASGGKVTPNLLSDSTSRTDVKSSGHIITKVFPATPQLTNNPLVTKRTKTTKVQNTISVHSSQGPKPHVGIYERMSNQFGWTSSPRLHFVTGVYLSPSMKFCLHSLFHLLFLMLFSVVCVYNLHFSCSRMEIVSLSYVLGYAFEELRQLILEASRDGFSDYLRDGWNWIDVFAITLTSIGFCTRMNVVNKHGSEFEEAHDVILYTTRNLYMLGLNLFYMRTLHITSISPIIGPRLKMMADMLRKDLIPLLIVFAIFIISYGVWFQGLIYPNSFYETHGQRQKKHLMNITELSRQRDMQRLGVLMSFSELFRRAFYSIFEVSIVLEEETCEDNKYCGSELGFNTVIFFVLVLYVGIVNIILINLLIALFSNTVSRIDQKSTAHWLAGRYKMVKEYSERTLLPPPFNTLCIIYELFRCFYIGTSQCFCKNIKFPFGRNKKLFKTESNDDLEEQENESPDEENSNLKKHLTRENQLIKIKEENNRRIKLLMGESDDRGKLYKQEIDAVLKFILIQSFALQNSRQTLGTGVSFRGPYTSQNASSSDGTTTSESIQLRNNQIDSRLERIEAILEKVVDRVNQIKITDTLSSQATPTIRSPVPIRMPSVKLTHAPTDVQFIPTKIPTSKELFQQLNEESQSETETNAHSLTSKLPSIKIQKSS
attribute measured: Activator screen at Sm.TRPMMCLZ

INSERT INTO assay_data (compound, attribute_measured, reported_value) VALUES
  ('C=CCN=C=S [allyl isothiocyanate]', 'Activator screen at Sm.TRPMMCLZ', 'inactive'),
  ('NCCc1c[nH]c2ccc(O)cc12 [5-hydroxytryptamine]', 'Activator screen at Sm.TRPMMCLZ', 'inactive'),
  ('CC1CCC(C(C)C)C(O)C1 (stereo not shown)', 'Activator screen at Sm.TRPMMCLZ', 'inactive'),
  ('COCCOC(=O)C1=C(C)NC(C)=C(C(=O)OC(C)C)C1c1cccc([N+](=O)[O-])c1 (stereo not shown)', 'Activator screen at Sm.TRPMMCLZ', 'activated'),
  ('C[N+](C)(C)CCOC(N)=O', 'Activator screen at Sm.TRPMMCLZ', 'inactive'),
  ('NCCCC(=O)O', 'Activator screen at Sm.TRPMMCLZ', 'inactive'),
  ('O=C1NC(c2cccc([N+](=O)[O-])c2)=CCN1c1ccccc1O', 'Activator screen at Sm.TRPMMCLZ', 'inactive'),
  ('COC(=O)c1c(C)[nH]c(C)c1C(=O)c1ccccc1Cc1ccccc1', 'Activator screen at Sm.TRPMMCLZ', 'activated'),
  ('COc1cc(CNC(=O)CCCC/C=C/C(C)C)ccc1O', 'Activator screen at Sm.TRPMMCLZ', 'inactive'),
  ('NCCc1ccc(O)c(O)c1', 'Activator screen at Sm.TRPMMCLZ', 'inactive');
